MEASUREMENT TARGET: MLL1-WRAD2 complex (Homo sapiens (Human))
EXPERIMENT SUMMARY: MLL1-WRAD2 enzyme assay (in vitro methyl transferase assay)
Assay type: biochemical
PROTOCOL CONDITIONS: MLL1-WRAD2 assay; read-out: In vitro MLL1 activity (IC50)
Experimental: Reaction was initiated with 1 μM 3H-SAM and incubated for 1 hour at 30° C. Reaction mixture was transferred to P81 filter-paper and washed with PBS before detection.
API: label(entry) gives 1 (yes) if the entry's IC50 is strictly smaller than 2000 nM; on equality or larger values it gives 0 (no).

COMPOUND: Cc1cc(C(=O)Nc2cc(-c3cc(CN4CCOCC4)ccc3F)ccc2N2CCN(C)CC2)cc(C(F)(F)F)c1F [Example 41]
LABEL VALUE: 0 (no)
//
COMPOUND: CN1CCN(c2ccc(-c3cc(CN4CCOCC4)ccc3F)c(F)c2NC(=O)c2c[nH]c(=O)cc2C(F)(F)F)CC1 [Example 99]
LABEL VALUE: 0 (no)
//
COMPOUND: CN1CCN(c2ccc(-c3ccc(OC4CCOCC4)nc3F)cc2NC(=O)c2c[nH]c(=O)cc2C(F)(F)F)CC1 [Example 8]
LABEL VALUE: 1 (yes)
//
COMPOUND: CN1CCN(c2ccc(-c3cc(OC4CCOCC4)ncc3F)cc2NC(=O)c2c[nH]c(=O)cc2C(F)(F)F)CC1 [Example 31]
LABEL VALUE: 1 (yes)
//
COMPOUND: CN1CCN(c2ccc(-c3cc(CNC4CCC(F)(F)CC4)ccc3F)cc2NC(=O)c2c[nH]c(=O)cc2C(F)(F)F)CC1 [Example 42]
LABEL VALUE: 0 (no)
//
COMPOUND: Cc1cc(C(=O)Nc2cc(-c3cc(CN4CCOCC4)ccc3F)ccc2N2CCN(C)CC2)ccc1F [Example 36]
LABEL VALUE: 0 (no)
//
COMPOUND: C[C@H]1CN(c2ccc(-c3ncccc3F)cc2NC(=O)c2c[nH]c(=O)cc2C(F)(F)F)CCN1C [Example 96]
LABEL VALUE: 0 (no)
//
COMPOUND: CN1CCN(c2ccc(-c3cc(CN4CCOCC4)ccc3F)cc2NC(=O)c2ccc(O)cc2C(F)(F)F)CC1 [Example 44]
LABEL VALUE: 0 (no)

----------
MEASUREMENT TARGET: WDR5 protein (Homo sapiens (Human))
EXPERIMENT SUMMARY: Surface Plasmon Resonance (SPR) assay
Type: binding
PROTOCOL CONDITIONS: SPR, τ=1/koff; read-out: Residence Time (t, min)
MEASURED METRIC: residence time (min)

COMPOUND: CN1CCN(c2ccc(-c3cc(CN4CCOCC4)ccc3F)cc2NC(=O)c2c[nH]c(=O)cc2C(F)F)CC1
MEASUREMENT TARGET: WDR5 protein (Homo sapiens (Human))
MEASURED METRIC: residence time
ENDPOINT UNIT: min
QUANTITATIVE RESULT: 3.89
--
COMPOUND: CN1CCN(c2ccc(-c3cc(OCC4CC4)ncc3F)cc2NC(=O)c2c[nH]c(=O)cc2C(F)(F)F)CC1
MEASUREMENT TARGET: WDR5 protein (Homo sapiens (Human))
MEASURED METRIC: residence time
ENDPOINT UNIT: min
QUANTITATIVE RESULT: 4.04
--
COMPOUND: CN1CCCN(c2ccc(-c3cc(CN4CCOCC4)ccc3F)cc2NC(=O)c2c[nH]c(=O)cc2C(F)(F)F)CC1
MEASUREMENT TARGET: WDR5 protein (Homo sapiens (Human))
MEASURED METRIC: residence time
ENDPOINT UNIT: min
QUANTITATIVE RESULT: 1.71
--
COMPOUND: CN1CCN(c2ccc(-c3ccnc(N4CCOCC4)c3F)cc2NC(=O)c2c[nH]c(=O)cc2C(F)(F)F)CC1
MEASUREMENT TARGET: WDR5 protein (Homo sapiens (Human))
MEASURED METRIC: residence time
ENDPOINT UNIT: min
QUANTITATIVE RESULT: 1.46
--
COMPOUND: CN1CCN(c2ccc(-c3cc(CN4CC[C@@H](N(C)C)C4)ccc3F)cc2NC(=O)c2c[nH]c(=O)cc2C(F)(F)F)CC1
MEASUREMENT TARGET: WDR5 protein (Homo sapiens (Human))
MEASURED METRIC: residence time
ENDPOINT UNIT: min
QUANTITATIVE RESULT: 4.29
--
COMPOUND: CN1CCN(c2ccc(-c3cc(CNC4CCCCC4)ccc3F)cc2NC(=O)c2c[nH]c(=O)cc2C(F)(F)F)CC1
MEASUREMENT TARGET: WDR5 protein (Homo sapiens (Human))
MEASURED METRIC: residence time
ENDPOINT UNIT: min
QUANTITATIVE RESULT: 7.88
--
COMPOUND: Cc1cc(=O)[nH]cc1C(=O)Nc1cc(-c2cc(CN3CCOCC3)ccc2F)ccc1N1CCN(C)CC1
MEASUREMENT TARGET: WDR5 protein (Homo sapiens (Human))
MEASURED METRIC: residence time
ENDPOINT UNIT: min
QUANTITATIVE RESULT: 0.42
--
COMPOUND: CN1CCN(c2ccc(-c3cc(CN4CC[C@@H](O)C4)ccc3F)cc2NC(=O)c2c[nH]c(=O)cc2C(F)(F)F)CC1
MEASUREMENT TARGET: WDR5 protein (Homo sapiens (Human))
MEASURED METRIC: residence time
ENDPOINT UNIT: min
QUANTITATIVE RESULT: 2.36
--
COMPOUND: CC(C)COc1ccc(F)c(-c2ccc(N3CCN(C)CC3)c(NC(=O)c3c[nH]c(=O)cc3C(F)(F)F)c2)c1
MEASUREMENT TARGET: WDR5 protein (Homo sapiens (Human))
MEASURED METRIC: residence time
ENDPOINT UNIT: min
QUANTITATIVE RESULT: 0.19
--
COMPOUND: CN1CCN(c2ccc(-c3cc(OC(F)(F)F)ccc3F)cc2NC(=O)c2c[nH]c(=O)cc2C(F)(F)F)CC1
MEASUREMENT TARGET: WDR5 protein (Homo sapiens (Human))
MEASURED METRIC: residence time
ENDPOINT UNIT: min
QUANTITATIVE RESULT: 1.88
--
COMPOUND: C[C@@H]1CN(c2ccc(-c3ccc(C(N)=O)c(F)c3F)cc2NC(=O)c2c[nH]c(=O)cc2C(F)(F)F)C[C@H](C)N1C
MEASUREMENT TARGET: WDR5 protein (Homo sapiens (Human))
MEASURED METRIC: residence time
ENDPOINT UNIT: min
QUANTITATIVE RESULT: 4.2
--
COMPOUND: C[C@@H]1CN(c2ccc(-c3c(F)ccc(C#N)c3F)cc2NC(=O)c2c[nH]c(=O)cc2C(F)(F)F)C[C@H](C)N1C
MEASUREMENT TARGET: WDR5 protein (Homo sapiens (Human))
MEASURED METRIC: residence time
ENDPOINT UNIT: min
QUANTITATIVE RESULT: 2.5
--
COMPOUND: CN1CCN(c2ccc(-c3cc(CN4CCOCC4)ccc3F)cc2NC(=O)c2cc(O)cc(F)c2F)CC1
MEASUREMENT TARGET: WDR5 protein (Homo sapiens (Human))
MEASURED METRIC: residence time
ENDPOINT UNIT: min
QUANTITATIVE RESULT: 0.61
--
COMPOUND: C[C@@H]1CN(c2ccc(-c3cc(CN4CCOCC4)ccc3F)cc2NC(=O)c2c[nH]c(=O)cc2C(F)(F)F)C[C@H](C)N1C
MEASUREMENT TARGET: WDR5 protein (Homo sapiens (Human))
MEASURED METRIC: residence time
ENDPOINT UNIT: min
QUANTITATIVE RESULT: 5.84
--
COMPOUND: CC1CN(c2ccc(-c3cc(C(=O)NC4CCCCC4)ccc3F)cc2NC(=O)c2c[nH]c(=O)cc2C(F)(F)F)CC(C)N1C (centres unmarked)
MEASUREMENT TARGET: WDR5 protein (Homo sapiens (Human))
MEASURED METRIC: residence time
ENDPOINT UNIT: min
QUANTITATIVE RESULT: 20.6
--
COMPOUND: CN1CCN(c2ccc(-c3cc(CN4CCOCC4)ccc3F)c(F)c2NC(=O)c2c[nH]c(=O)cc2C(F)(F)F)CC1
MEASUREMENT TARGET: WDR5 protein (Homo sapiens (Human))
MEASURED METRIC: residence time
ENDPOINT UNIT: min
QUANTITATIVE RESULT: 2.2
--
COMPOUND: C[C@@H]1CN(c2ccc(-c3cc(OCC4CC4)ncc3F)cc2NC(=O)c2c[nH]c(=O)cc2C(F)(F)F)C[C@H](C)N1C
MEASUREMENT TARGET: WDR5 protein (Homo sapiens (Human))
MEASURED METRIC: residence time
ENDPOINT UNIT: min
QUANTITATIVE RESULT: 12.6
